Recorded IC90 by entry
# Test system: Mycobacterium tuberculosis H37Rv growth inhibition, 7H9 medium
# Experiment notes: M. tuberculosis growth inhibition, dose response, H37Rv, 7H9 media, purified and synthesized compounds, set 6 (AID 504897)

The following compounds have reported results that may help.
CC(C)CNC(=O)CSc1nc2ccccc2c(=O)[nH]1; 432 nM
CCOc1ccc(-c2cc(C)[n+](CCc3ccc(OC)c(OC)c3)c(-c3ccc(OCC)cc3)c2)cc1; 954 nM
Cc1ccc(C(=O)N/N=C(/CC(=O)c2cccs2)C(F)(F)F)cc1; 3100 nM
O=C(CSc1nc2c(c(=O)[nH]1)CCCC2)NC1CCCCC1; 81 nM
Cc1cccc(-c2oc3ccc(-c4ccc5c(c4)OCO5)cc3c2C#Cc2cncn2C)c1; 2980 nM
CC(C)N=c1cc2n(-c3ccc(Cl)cc3)c3ccccc3nc-2cc1Nc1ccc(Cl)cc1; 396 nM
CC(C)CCNC(=O)CSc1nc2ccccc2c(=O)[nH]1; < 136 nM
CC1CCN(C(=O)C2CCN(c3nnc(-n4cccc4)s3)CC2)CC1; 3900 nM

stdin: Query (compound): "Cc1cc(Br)ccc1NC(=O)c1cnc(N2CCN(c3ccccn3)CC2)c2ccccc12" ; field requested: IC90
stdout: 2790 nM

stdin: And then "CNC(=O)CSc1nc2ccccc2c(=O)[nH]1" , what is it?
stdout: 68100 nM

stdin: And then "O=C(CSc1nc2c(c(=O)[nH]1)CCC2)NC1CCCCC1" , what is it?
stdout: < 69 nM

* * *

# Tested on: Mycobacterium tuberculosis H37Rv growth inhibition, 7H9 medium
# Experiment notes: M. tuberculosis growth inhibition, dose response, H37Rv, 7H9 media, purified and synthesized compounds, set 6 (AID 504897)
Measurement kind: IC90

The following compounds have reported results that may help.
CCOC1OC(=O)C(Cl)=C1Nc1ccccc1C (stereo unspecified); 5.92 µM
CC(C)CCNC(=O)CSc1nc2c(c(=O)[nH]1)CCC2; 0.947 µM
Cc1nc(SCC(=O)NC2CCCC2)[nH]c(=O)c1C; 8.89 µM

Now consider the entry below.
stdin: What is its IC90 for Mycobacterium tuberculosis H37Rv growth inhibition, 7H9 medium? Entry: "O=C(CSc1nc2ccccc2c(=O)[nH]1)NC1CCCC1"
stdout: 0.535 µM

* * *

# Experiment notes: M. tuberculosis growth inhibition, dose response, H37Rv, 7H9 media, purified and synthesized compounds, set 6 (AID 504897)
# Setup conditions: Mycobacterium tuberculosis H37Rv growth inhibition, 7H9 medium; at 100 µM (top of the series)
Recorded inhibition by entry
Field format: number, assumed %, no unit text.

The following molecules have reported results that may help.
CCC(Sc1nc2ccccc2c(=O)[nH]1)C(=O)NC1CCCCC1 (configuration not stated); 1.35
CC(Sc1nc2ccccc2c(=O)[nH]1)C(=O)NC1CCCCC1 (configuration not stated); -1.17
Cc1cc(=O)[nH]c(=S)[nH]1; -3.5
O=C(CSc1nc2ccccc2c(=O)[nH]1)N1CCOCC1; 6.74
O=C(CSc1ncccn1)NC1CCCCC1; -0.52
CN1CCC(NC(=O)CSc2nc3ccccc3c(=O)[nH]2)CC1; -4.24

stdin: Query (molecule): "CCOC(=O)CSc1nc(C)c(C)c(=O)[nH]1" ; field requested: inhibition
stdout: 3.07

stdin: And then "CCSc1nc2ccccc2c(=O)[nH]1" , what is it?
stdout: -6.01

stdin: And then "Cn1c(SCC(=O)NC2CCCCC2)nc2ccccc2c1=O" , what is it?
stdout: -2.65

stdin: And then CCC(Sc1nc2ccccc2c(=O)[nH]1)C(=O)Nc1cccc(OC)c1 (configuration not stated) , what is it?
stdout: 4.58

stdin: And then "COc1ccc(NC(=O)CSc2nc3ccccc3c(=O)[nH]2)cc1" , what is it?
stdout: 1.71

stdin: And then "CN(C)C(=O)CSc1nc2ccccc2c(=O)[nH]1" , what is it?
stdout: 0.96

* * *

Recorded IC90 by entry
# System: Mycobacterium tuberculosis H37Rv growth inhibition, 7H9 medium
# Experiment notes: M. tuberculosis growth inhibition, dose response, H37Rv, 7H9 media, purified and synthesized compounds, set 6 (AID 504897)

The following compounds have reported results that may help.
Cc1nc(SCC(=O)NC2CCCCC2)[nH]c(=O)c1C; 1320 nM
CC[N+](C)(CC)CCCCOc1ccc2c(c1)C(=O)c1cc(OCCCC[N+](C)(CC)CC)ccc1-2; 2650 nM
CC(C)NC(=O)CSc1nc2ccccc2c(=O)[nH]1; 14200 nM
Cc1cccc(/C=C/C(=O)c2ccc([N+](=O)[O-])o2)c1; 938 nM
CN[C@@H]1[C@H](O[C@H]2[C@H](O[C@H]3[C@H](O)[C@@H](O)[C@H](N=C(N)N)[C@@H](O)[C@@H]3N=C(N)N)O[C@@H](C)[C@]2(O)C=O)O[C@@H](CO)[C@H](O)[C@H]1O; 176 nM

stdin: What is its IC90 for Mycobacterium tuberculosis H37Rv growth inhibition, 7H9 medium? Entry: "NNC(=O)c1ccncc1"
stdout: 294 nM

stdin: And then "CCCCNC(=O)CSc1nc2ccccc2c(=O)[nH]1" , what is it?
stdout: 1210 nM

stdin: And then "NC[C@H]1O[C@H](O[C@H]2[C@H](O)[C@@H](O[C@H]3O[C@H](CO)[C@@H](O)[C@H](N)[C@H]3O)[C@H](N)C[C@@H]2N)[C@H](O)[C@@H](O)[C@@H]1O" , what is it?
stdout: 2120 nM

stdin: And then COC(=O)C(C)Oc1ccc(Cc2ncc(C(F)(F)F)cc2Cl)cc1 (centres undefined) , what is it?
stdout: 6750 nM

* * *

# System: Mycobacterium tuberculosis H37Rv growth inhibition, 7H9 medium
# Experiment notes: M. tuberculosis growth inhibition, dose response, H37Rv, 7H9 media, purified and synthesized compounds, set 6 (AID 504897)
Measurement kind: IC90

stdin: Query (compound): "c1ccc(/N=C2\N=C(Nc3ccccn3)c3ccccc32)nc1" ; field requested: IC90
stdout: 1.76 µM

stdin: And then "Cc1nc(SCC(=O)NCCC(C)C)[nH]c(=O)c1C" , what is it?
stdout: 8.75 µM

stdin: And then "Cc1ccc(NC(=O)COC(=O)CCc2c[nH]c3ccccc23)cc1[N+](=O)[O-]" , what is it?
stdout: 4.37 µM

stdin: And then "Cc1cc(C)n2nc(N)c(N=Nc3ccccc3)c2n1" , what is it?
stdout: 6.01 µM

stdin: And then COc1c(N2CCNC(C)C2)c(F)cc2c(=O)c(C(=O)O)cn(C3CC3)c12 (configuration not stated) , what is it?
stdout: 0.162 µM

stdin: And then "Nc1c(C(=O)NC2CCCCC2)nsc1C(=O)OCC(=O)NC1CCCCC1" , what is it?
stdout: 7.45 µM

stdin: And then "O=C(CSc1nc2ccccc2c(=O)[nH]1)NCc1ccc(Cl)cc1" , what is it?
stdout: 0.973 µM

* * *

# Experiment notes: M. tuberculosis growth inhibition, dose response, H37Rv, 7H9 media, purified and synthesized compounds, set 6 (AID 504897)
# Setup conditions: Mycobacterium tuberculosis H37Rv growth inhibition, 7H9 medium; at 100 µM (top of the series)
Active and inactive are the calls of the source. The rule behind the calls is not given here.
Recorded inhibition by entry

stdin: Query (molecule): "O=c1[nH]c(SCc2ccccc2Cl)nc2c1CCCC2" ; field requested: inhibition
stdout: 1.13% (inactive)

stdin: And then "CC1CCN(C(=O)CSc2nc3ccccc3c(=O)[nH]2)CC1" , what is it?
stdout: 3.89% (inactive)

* * *

# Experiment notes: M. tuberculosis growth inhibition, dose response, H37Rv, 7H9 media, purified and synthesized compounds, set 6 (AID 504897)
# Setup conditions: Mycobacterium tuberculosis H37Rv growth inhibition, 7H9 medium; at 100 µM (top of the series)
Recorded inhibition by entry
Field format: number, assumed %, no unit text.

Cc1nc(SCC(N)=O)[nH]c(=O)c1C; -2.86
NC(=O)CSc1nc2ccccc2c(=O)[nH]1; 3.52
Cc1[nH]c(=S)[nH]c(=O)c1C; -0.2

stdin: Query (compound): "O=c1[nH]c(=S)[nH]c2ccccc12" ; field requested: inhibition
stdout: -4.69

stdin: And then "O=C(CSc1nccc(=O)[nH]1)NC1CCCCC1" , what is it?
stdout: 0.9

stdin: And then "Cc1cc(=O)[nH]c(SCC(=O)NC2CCCCC2)n1" , what is it?
stdout: 0.97

stdin: And then "COc1cccc(NC(=O)CSc2nc3ccccc3c(=O)[nH]2)c1" , what is it?
stdout: -3.46

stdin: And then "Cc1nc(SCC(=O)N(C)c2ccccc2)[nH]c(=O)c1C" , what is it?
stdout: -3.37

stdin: And then COC(=O)C(Nc1nc(SCC(=O)NC2CCCCC2)nc2ccccc12)c1ccccc1 (stereo not drawn) , what is it?
stdout: 9.91

stdin: And then "CCSc1nc(C)c(C)c(=O)[nH]1" , what is it?
stdout: 0.94

stdin: And then "Cc1ccc(NC(=O)CSc2nc3ccccc3c(=O)[nH]2)cc1Cl" , what is it?
stdout: -4.35

stdin: And then "Cc1c[nH]c(=S)[nH]c1=O" , what is it?
stdout: -0.98
